test system: ATP; assay: switch fluorescence ratio, 500 uM ATP over buffer (Cy3 cluster intensity, sum of 5 cycles each) (fold (ratio)); higher = stronger signal-on switching upon ATP binding; sequences stand for … in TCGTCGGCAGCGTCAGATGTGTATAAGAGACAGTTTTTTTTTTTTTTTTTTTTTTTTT…TC; conditions: aptamer strand: ATP DNA aptamer (quencher-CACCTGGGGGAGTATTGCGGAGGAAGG + anchor), 100 nM annealed; ATP concentration: 500 uM;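 note: ATP exposure 15 min at 22 °C before imaging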
Y means recorded switch fluorescence ratio is 1 or above; N means it is below 1.

{"columns": ["BIOPOLYMER_SEQUENCE", "GROUP_LABEL"],
 "data": [
  ["GCTCTGAGGG", "Y"],
  ["TCCGAGGCGG", "Y"],
  ["ACGCGACGGA", "Y"],
  ["GAATATTTAG", "N"],
  ["TGAAGTTTTC", "N"],
  ["ACTTACAGAA", "Y"],
  ["CTCGCGGCGG", "Y"],
  ["AATGAGCGTT", "Y"],
  ["CAACCGTGAA", "Y"],
  ["TCGTATTAAG", "N"],
  ["AACAAGGGGA", "Y"],
  ["ATTACGTCCT", "Y"],
  ["CGGATCCAGG", "Y"],
  ["TTTTGACCGC", "Y"],
  ["CATGGATGGC", "Y"],
  ["GCAGCTGTAT", "Y"],
  ["GGCAATCGAA", "Y"],
  ["ATTGTAGTGC", "N"],
  ["GGTAATATTA", "Y"],
  ["AGCAATGTCT", "Y"],
  ["AATACTTGGG", "N"],
  ["TAGTGGGGAC", "N"],
  ["TAGTTAGGCG", "N"],
  ["CGGATATGGC", "Y"],
  ["GCCGGGTTAT", "Y"],
  ["TGGCGGCCAC", "Y"],
  ["GGTATCACCT", "Y"],
  ["TTACATATAG", "Y"],
  ["TCCAGGCGAA", "Y"]
]}
